Collected IC50 of neutralisation of SARS-CoV-2 pseudovirus (HeLa-hACE2 cells) values appear next to each entry.
- Target or system: SARS-CoV-2 S-2P protein (SARS-CoV-2, ancestral (Wuhan-Hu-1) …, UniProt P0DTC2, stabilised)
- Procedure summary: cell-based or functional assay

Problem: Name the reported IC50 of neutralisation of SARS-CoV-2 pseudovirus (HeLa-hACE2 cells) value associated with the binder eCC65.1-9 (antibody, V domains shown) VH: VQLVQSGAEVKKPGASVKVSCKASGYDFTSQYMHWVRQAPGQGLEWMGIIDPEGGGTSYAQKFRDRVSMTRDTPTSTVYMELRSLRSEDTAVYYCASLWFEKPSWRDYWGQGTLVTVSS VL: VMTQSPGTLSLSPGERATLSCRASQTVTSNYLAWYQQKPGQAPRLLIYHASSRATGIPDRFSGSGSGTDFTLTISRLEPEDFAVYYCQQYGSKPPLFTFGPGTKLEIK
Result: 2.6 µg/mL

Problem: Dear colleague, I am looking for the recorded IC50 of neutralisation of SARS-CoV-2 pseudovirus (HeLa-hACE2 cells) of the following binder: eCC65.1-7 (antibody, V domains shown) VH: VQLVQSGAEVKKPGASVKVSCKASGYSFTSQYMHWVRQAPGQGLEWMGIIDPSGGGTSYAQKFRDRVSMTRDTPTSTVYMELRSLRSEDTAVYYCASLWFENPSWRDYWGQGTLVTVSS VL: VMTQSPGTLSLSPGERATLSCRASQTVNKNYLAWYQQKPGQAPRLLIYHASSRATGIPDRFSGSGSGTDFTLTISRLEPEDFAVYYCQQYGASPPLFTFGPGTKLEIK
Result: 3.01 µg/mL

Problem: So what does the record say about IC50 of neutralisation of SARS-CoV-2 pseudovirus (HeLa-hACE2 cells) for eCC65.1-12 (antibody, V domains shown) VH: EVQLVQSGAEVKKPGASVKVSCKASGYTFTSQYMHWVRQAPGQGLEWMGIIDPSGGGTSYAQKFRDRVSMTRDTPTSTVYMELRSLRSEDTAVYYCASLWFENPSWRDYWGQGTLVTVSS VL: DVVMTQSPGTLSLSPGERATLSCRASQTVNKNYLAWYQQKPGQAPRLLIYHASSRATGIPDRFSGSGSGTDFTLTISRLEPEDFAVYYCQQYGASPPLFTFGPGTKLEIK ?
Result: 5.77 µg/mL

New cases:
Problem: # query: IC50 of neutralisation of SARS-CoV-2 pseudovirus (HeLa-hACE2 cells) of entry eCC65.1-10 (antibody, V domains shown) VH: VQLVQSGAEVKKPGASVKVSCKASGYDFTSQYMHWVRQAPGQGLEWMGIIDPSGGGTSYAQKFRDRVSMTRDTPTSTVYMELRSLRSEDTAVYYCASLWFENPSWSDYWGQGTLVTVSS VL: VMTQSPGTLSLSPGERATLSCRASQTVNKNYLAWYQQKPGQAPRLLIYHASSRATGIPDRFSGSGSGTDFTLTISRLEPEDFAVYYCQQYGASPPLFTFGPGTKLEIK
Result: 1.86 µg/mL

Problem: Record request: IC50 of neutralisation of SARS-CoV-2 pseudovirus (HeLa-hACE2 cells) value, item eCC65.1-2 (antibody, V domains shown) VH: VQLVQSGAEVKKPGASVKVSCKATGYTFTSQYMHWVRQAPGQGLEWMGIIDPKGGGTSYAQKFRDRVSMTRDTPTSTVYMELRSLRSEDTAVYYCASLWFENPSWTDYWGQGTLVTVSS VL: VMTQSPGTLSLSPGERATLSCRASQTVNKNYLAWYQQKPGQAPRLLIYHASSRATGIPDRFSGSGSGTDFTLTISRLEPEDFAVYYCQQYGSSPPLFTFGPGTKLEIK
Result: 2.05 µg/mL
